- Test system: Plasmodium berghei
- experiment: Screen against P. berghei liver stage (PbLuc), transformed with Luciferase, at 10uM
- Assay type: functional, HepG2
- run parameters: tested at 10 uM
Hit rate of the full screen: of about 69,000 compounds, about 8,600 (12%) showed an effect of 50% or more. The sample holds strong results, similar compounds and a random draw of the others, so the mix is not that of the screen.
quantity kind: INHIBITION (%)
Numeric only. Scale: %

Any idea what INHIBITION was measured for N#Cc1ccc(C2CC(=O)Nc3c(C(=O)O)nsc32)cc1 (stereo unspecified) ?
-38.7

Also COc1cc(C(=O)NC(CC(=O)O)c2cccs2)cc(OC)c1C (stereo unspecified) ?
5.03

Also CN(C(=O)c1ccc(C#N)cc1)c1nnc(C2CCOC2)s1 (stereo unspecified) ?
-0.585

Also `O=C(NCC1CCOCC1)c1cc(-c2ccncc2)c2cnccc2n1` ?
17.4

Also `CCOC(=O)c1sc(NC(=O)CCCC(=O)O)c(C#N)c1C` ?
28.2

Also Cc1cccc(OCC2CCCN(C(=O)Cn3ccccc3=O)C2)c1 (stereo unspecified) ?
13.6

---

- Tested on: Plasmodium berghei
- experiment: Screen against P. berghei liver stage (PbLuc), transformed with Luciferase, at 10uM
- Assay type: functional, HepG2
- run parameters: tested at 10 uM
The whole screen tested about 69,000 compounds, of which about 8,600 (12%) showed an effect of 50% or more. The entries come from a sample that favours strong results as a whole.
Categorized via INHIBITION: low: < 10%; mid: ≥ 10% and < 40%; high: ≥ 40%

Which INHIBITION band matches `Cc1cccc(CN2CCn3cc(Cn4cccn4)nc3C2)n1` ?
low

Also OCC1CCCN1c1cc(NCCNc2ccccn2)ncn1 (stereo not given) ?
low

Also `CN(C)CCn1c(=O)oc2ccc(NC(=O)N3CCCCCC3)cc21` ?
mid

Also `O=C(NCc1cccc(F)c1)N1CCc2ncnc(NC3CC3)c2CC1` ?
mid

Also `CN(C)C(=O)CN1CCc2onc(-c3ccccc3F)c2C1` ?
low

Also `CC(C)COCCC(=O)Nc1ccc2oc(=O)n(CCN(C)C)c2c1` ?
low

Also `Cc1cc(C)n(Cc2ccc(-c3noc(C(=O)NCCCO)n3)cc2)n1` ?
mid

Also CN1CCC(N(C)C(=O)CCc2ccc(F)c(F)c2)C1=O (stereo not given) ?
mid

Also `O=C(Cc1ccsc1)N1Cc2nc(CN3CCCCC3)oc2C1` ?
mid

Also `CN(C)CCn1c(=O)oc2ccc(NC(=O)CSc3ccccc3)cc21` ?
mid

Also `CC(C)Nc1ncnc2c1CCN(C(=O)Cc1ccccn1)CC2` ?
low

Also `CCC(CC)C(=O)Nc1ccc2oc(=O)n(CCN(C)C)c2c1` ?
high

Also OCC1CCCN1c1cc(NCCc2ccsc2)ncn1 (stereo not given) ?
high

Also `Cc1cc(C(=O)Nc2ccc3oc(=O)n(CCN(C)C)c3c2)c(C)o1` ?
high

Also N#Cc1c(CN2CCCC2Cn2cncn2)cn2ccccc12 (stereo not given) ?
low

Also `CN(C)CCn1c(=O)oc2ccc(NC(=O)c3cc(Cl)c[nH]3)cc21` ?
low

Also Cc1cc(C)n(CC2CCCN2CCC(=O)Nc2cc(C)on2)n1 (stereo not given) ?
mid

Also CN(C)S(=O)(=O)N1CCCC(C)(c2ncc(C(N)=O)s2)C1 (stereo not given) ?
mid

Also OCC1CCCN1c1cc(NCCc2ccccn2)ncn1 (stereo not given) ?
high

Also `CC(C)Nc1ncnc2c1CCN(C(=O)CN(C)C)CC2` ?
mid

Also `O=S(=O)(NCc1ccccc1)Nc1ccc(-n2cncn2)cc1` ?
mid

Also `CC(C)Nc1ncnc2c1CCN(C(=O)NCc1cccc(F)c1)CC2` ?
high

Also CCOc1ccc(C2CCCN2Cc2nnnn2C2CC2)cc1 (stereo not given) ?
high

Also OCC1CCCN1c1cc(NCCc2nccs2)ncn1 (stereo not given) ?
low

Also OCC1CCCN1c1cc(NCc2ccsc2)ncn1 (stereo not given) ?
high
